# Assay Notes: Open label pharmacokinetic study GW01-0804: serum pharmacokinetics
# Measurement Parameters: both, human, in vivo, AUC0-24, Mean, serum; Day 21
Measurement Name: AUC(0-t) (ng·h/mL)
Lab book: enter the figure in ng·h/mL, no units written.

Provide AUC(0-t) value for the following molecule: CC(C)Cn1cnc2c(N)nc3ccccc3c21 [Imiquimod (R-837)]
6.79

----------
# Assay Notes: Open label pharmacokinetic study GW01-0804: serum pharmacokinetics
# Measurement Parameters: both, human, in vivo, T1/2, Mean, serum; Day 1
Measurement Name: half-life (h)
Lab book: enter the figure in h, no units written.

Provide half-life value for the following compound: CC(C)Cn1cnc2c(N)nc3ccccc3c21 [Imiquimod (R-837)]
12.4

Taken from patent US10238645B2.
